FYI, the data here is from paper PMC6832239.

biological target: plasmin (Homo sapiens); construct: purchased Chromogenix (Milano, Italy); experiment: Amidolytic activity of plasmin (chromogenic substrate H-D-Val-Leu-Lys-pNA); format: biochemical; settings: amidolytic activity; Tris pH 7.4, 37 °C; IC50 by extrapolation using a linear plot; error 5%; read-out: IC50 Plasmin
Sequence (P00747 581-810 limits assumed): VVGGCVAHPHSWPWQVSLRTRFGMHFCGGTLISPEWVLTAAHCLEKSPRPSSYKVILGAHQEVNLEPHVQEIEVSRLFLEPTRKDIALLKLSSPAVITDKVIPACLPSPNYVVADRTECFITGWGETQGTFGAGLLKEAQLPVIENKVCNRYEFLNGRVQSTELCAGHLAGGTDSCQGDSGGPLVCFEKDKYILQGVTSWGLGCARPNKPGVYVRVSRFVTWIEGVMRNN
Sequence (P00747 97-580 partner limits assumed): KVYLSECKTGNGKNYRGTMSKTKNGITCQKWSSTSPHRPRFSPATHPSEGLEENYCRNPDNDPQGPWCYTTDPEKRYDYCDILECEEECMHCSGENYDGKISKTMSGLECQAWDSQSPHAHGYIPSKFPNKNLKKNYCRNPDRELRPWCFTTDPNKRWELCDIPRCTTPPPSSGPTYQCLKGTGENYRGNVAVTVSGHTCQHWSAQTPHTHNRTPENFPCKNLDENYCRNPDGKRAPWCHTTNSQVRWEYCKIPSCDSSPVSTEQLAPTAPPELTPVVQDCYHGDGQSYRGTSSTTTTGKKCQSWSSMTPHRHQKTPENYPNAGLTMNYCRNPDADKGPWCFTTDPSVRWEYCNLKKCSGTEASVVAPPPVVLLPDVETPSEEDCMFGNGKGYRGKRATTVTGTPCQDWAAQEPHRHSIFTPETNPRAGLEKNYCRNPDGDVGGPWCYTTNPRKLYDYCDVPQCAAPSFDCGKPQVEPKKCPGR
QUANTITY: IC50 (mM)

A selection of reference data follows.
SUBSTANCE | IC50 (mM)
H-RTTRS-NH2 [Peptide 21, H-Arg-Thr-Thr-Arg-Ser-NH2] | 0.44
H-KTTRS-NH2 [Peptide 13, H-Lys-Thr-Thr-Arg-Ser-NH2] | 0.72

(a) H-KTTRS-OH [Peptide 9, H-Lys-Thr-Thr-Arg-Ser-OH]
(b) Ac-RTTRS-OH [Peptide 18, Ac-Arg-Thr-Thr-Arg-Ser-OH]
(c) Ac-KTTKS-NH2 [Peptide 6, Ac-Lys-Thr-Thr-Lys-Ser-NH2]
Order these by IC50, descending, and give the full ranking. Please write the labels in the order that was asked for.
b, c, a
(b: 8.81 mM, c: 2.92 mM, a: 0.63 mM)
